Hey, just so you know, these numbers are from patent US20140179604A1.

- tested_system: T1, GHRH receptor (membrane receptors of human anterior pituitary cells) (human, UniProt Q02643 23-423)
- T1 construct: whole, on cells; Native receptor in a membrane fraction of purchased normal human pituitaries, not intact cells; also called hGHRH receptor; human pituitary membrane homogenates
- T1 sequence (looked up): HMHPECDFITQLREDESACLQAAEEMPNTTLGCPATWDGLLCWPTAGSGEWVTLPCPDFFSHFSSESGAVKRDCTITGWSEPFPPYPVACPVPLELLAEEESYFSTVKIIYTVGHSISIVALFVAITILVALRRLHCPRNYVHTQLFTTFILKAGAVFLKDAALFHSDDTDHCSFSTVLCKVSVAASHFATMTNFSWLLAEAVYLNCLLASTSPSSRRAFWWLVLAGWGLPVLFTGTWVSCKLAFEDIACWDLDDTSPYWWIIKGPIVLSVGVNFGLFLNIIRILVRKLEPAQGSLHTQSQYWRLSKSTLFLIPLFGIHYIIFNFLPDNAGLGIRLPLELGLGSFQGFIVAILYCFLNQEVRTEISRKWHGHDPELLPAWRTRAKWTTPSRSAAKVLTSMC
- protocol_summary: competition with 125I-JV-1-42, human pituitary membranes
Non-standard residues stand in square brackets, D forms with d. No end group written: not given here. *: point of attachment. Phe(F5) = N[C@@H](Cc1c(F)c(F)c(F)c(F)c1F)C(=O)O; NMeY = CN[C@@H](Cc1ccc(O)cc1)C(=O)O; Agmatine = N=C(N)NCCCCN*; Nle = CCCC[C@H](N)C(=O)O; Orn = NCCC[C@H](N)C(=O)O; Abu = CC[C@H](N)C(=O)O
outcome_measure: Relative affinity (Binding potency) vs JI-38 (JI-38 = 1)

Known Relative affinity (Binding potency) vs JI-38 results, listed for orientation:
binder="[NMeY][dA]DAIFTNSYR[Orn]VL[Abu]QLSAR[Orn]LLQDI[Nle]DR-NHEt (also called MR-421; Peptide 28421) [P-28421 [N-Me-Tyr^1, D-Ala^2, Orn^12, Abu^15, Orn^21, Nle^27, Asp^28]hGHRH(1-29)NH-CH2-CH3]" test_value=2.96
binder="[NMeY][dA]DAI[Phe(F5)]TNSYR[Orn]VL[Abu]QLSAR[Orn]LLQDI[Nle]D[Agmatine] (also called Peptide 20359) [P-20359 [N-Me-Tyr^1, D-Ala^2, Fpa5^6, Orn^12, Abu^15, Orn^21, Nle^27, Asp^28, Agm^29]hGHRH(1-29)NH2]" test_value=1.43

I: [NMeY][dA]DAIFTNSYR[Orn]VL[Abu]QLSAR[Orn]LLQDI[Nle]DR-NHMe (also called MR-409; Peptide 27409) [P-27409 [N-Me-Tyr^1, D-Ala^2, Orn^12, Abu^15, Orn^21, Nle^27, Asp^28]hGHRH(1-29)NH-CH3]
II: [NMeY][dA]DAIFTQSYR[Orn]VL[Abu]QLSAR[Orn]LLQDI[Nle]DR-NHMe [P-27403 [N-Me-Tyr^1, D-Ala^2, Gln^8, Orn^12, Abu^15, Orn^21, Nle^27, Asp^28]hGHRH(1-29)NH-CH3]
In: Param pair: I , II . Output: the one whose Relative affinity (Binding potency) vs JI-38 is numerically greater. Provide the label of your selected option as the answer.
Out: II
(II: 27.2 JI-38 = 1, I: 4.1 JI-38 = 1)
